Target: RecBCD enzyme subunit RecC (Escherichia coli (strain K12)) + RecBCD enzyme subunit RecB (Escherichia coli (strain K12)) (UniProt P07648+P08394)
Sequence (P07648 whole entry, looked up): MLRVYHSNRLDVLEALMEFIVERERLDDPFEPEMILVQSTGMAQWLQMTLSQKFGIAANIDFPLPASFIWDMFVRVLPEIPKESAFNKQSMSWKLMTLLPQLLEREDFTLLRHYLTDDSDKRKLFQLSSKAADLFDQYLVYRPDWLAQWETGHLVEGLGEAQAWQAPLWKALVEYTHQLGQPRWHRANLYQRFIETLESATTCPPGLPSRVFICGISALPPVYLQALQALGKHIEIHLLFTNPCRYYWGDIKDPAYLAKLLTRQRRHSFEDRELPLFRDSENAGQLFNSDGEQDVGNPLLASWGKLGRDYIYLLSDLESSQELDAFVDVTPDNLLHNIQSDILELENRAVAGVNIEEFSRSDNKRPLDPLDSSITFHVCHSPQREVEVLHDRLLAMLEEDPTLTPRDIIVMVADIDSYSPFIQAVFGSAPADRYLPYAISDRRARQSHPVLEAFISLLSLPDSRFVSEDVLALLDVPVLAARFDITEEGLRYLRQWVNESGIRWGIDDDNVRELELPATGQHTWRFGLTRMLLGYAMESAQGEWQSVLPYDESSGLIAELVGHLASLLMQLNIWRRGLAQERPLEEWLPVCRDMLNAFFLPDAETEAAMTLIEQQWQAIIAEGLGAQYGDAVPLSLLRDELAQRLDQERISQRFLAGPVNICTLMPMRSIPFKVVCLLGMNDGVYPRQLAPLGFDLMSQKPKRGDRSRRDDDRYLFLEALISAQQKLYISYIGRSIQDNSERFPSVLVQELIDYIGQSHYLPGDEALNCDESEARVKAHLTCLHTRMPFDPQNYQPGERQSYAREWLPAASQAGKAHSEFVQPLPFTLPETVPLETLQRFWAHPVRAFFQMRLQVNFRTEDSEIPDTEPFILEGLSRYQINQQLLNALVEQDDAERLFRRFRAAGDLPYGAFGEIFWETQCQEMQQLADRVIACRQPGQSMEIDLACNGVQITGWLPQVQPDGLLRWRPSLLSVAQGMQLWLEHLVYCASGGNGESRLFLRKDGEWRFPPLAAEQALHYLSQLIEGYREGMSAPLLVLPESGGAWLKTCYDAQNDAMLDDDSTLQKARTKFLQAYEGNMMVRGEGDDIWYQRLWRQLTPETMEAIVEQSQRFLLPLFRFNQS
Sequence (P08394 whole entry, looked up): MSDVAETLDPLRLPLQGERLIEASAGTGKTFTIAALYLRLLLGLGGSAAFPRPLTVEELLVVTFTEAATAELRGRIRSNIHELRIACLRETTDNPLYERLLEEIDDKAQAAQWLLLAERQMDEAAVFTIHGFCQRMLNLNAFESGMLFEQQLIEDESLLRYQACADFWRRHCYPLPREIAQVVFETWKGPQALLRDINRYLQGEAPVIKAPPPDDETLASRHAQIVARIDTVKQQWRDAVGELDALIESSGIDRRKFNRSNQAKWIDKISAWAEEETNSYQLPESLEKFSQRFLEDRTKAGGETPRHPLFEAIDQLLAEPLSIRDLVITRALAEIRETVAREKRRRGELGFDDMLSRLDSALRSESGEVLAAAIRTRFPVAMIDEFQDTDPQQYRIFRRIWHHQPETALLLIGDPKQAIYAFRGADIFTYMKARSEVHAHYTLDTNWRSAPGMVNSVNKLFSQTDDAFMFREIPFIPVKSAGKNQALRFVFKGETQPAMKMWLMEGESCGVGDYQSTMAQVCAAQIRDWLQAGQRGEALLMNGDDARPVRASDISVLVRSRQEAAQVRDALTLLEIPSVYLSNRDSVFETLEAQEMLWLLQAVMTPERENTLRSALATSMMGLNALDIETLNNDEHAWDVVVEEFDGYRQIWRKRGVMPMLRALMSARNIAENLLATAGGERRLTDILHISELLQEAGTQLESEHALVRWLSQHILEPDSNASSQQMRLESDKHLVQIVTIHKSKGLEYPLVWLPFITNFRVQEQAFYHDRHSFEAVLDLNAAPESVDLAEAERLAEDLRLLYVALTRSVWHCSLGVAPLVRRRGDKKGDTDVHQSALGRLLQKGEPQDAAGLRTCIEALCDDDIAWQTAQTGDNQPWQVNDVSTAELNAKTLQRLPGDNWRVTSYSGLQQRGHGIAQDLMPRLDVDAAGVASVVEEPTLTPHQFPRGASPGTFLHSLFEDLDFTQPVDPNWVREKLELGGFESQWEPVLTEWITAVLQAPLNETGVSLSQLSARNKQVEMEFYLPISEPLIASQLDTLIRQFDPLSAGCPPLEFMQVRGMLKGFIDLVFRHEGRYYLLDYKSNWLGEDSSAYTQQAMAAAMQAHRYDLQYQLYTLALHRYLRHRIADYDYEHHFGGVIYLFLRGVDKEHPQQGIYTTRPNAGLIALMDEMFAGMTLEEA
Experiment: RecBCD dsDNA exonuclease activity remaining – biochemical, radioactivity readout, 50 µM single dose, counter-screen for AddAB inhibitor project, late-stage follow-up (AID 623922)
Conditions: purified RecBCD, [3H] dsDNA nuclease, TCA-soluble radioactivity; at 50 µM
Calls of active or inactive are those of the source.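 The calls were made as follows: active = residual nuclease activity at or below 52% of the solvent-only control; inactive = the rest.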
// allowed return values: 1 (yes) for active, 0 (no) for inactive

**Q:** Lab log entry: CCn1cc(C(=O)O)c(=O)c2cnc(N3CCN(C(=S)Nc4ccc(F)cc4)CC3)nc21 — outcome as called in the assay?
**A:** 1 (yes)

**Q:** Lab log entry: CCn1cc(C(=O)O)c(=O)c2cnc(N3CCN(C(=S)Nc4ccc5c(c4)OCO5)CC3)nc21 — outcome as called in the assay?
**A:** 1 (yes)

**Q:** Lab log entry: CCn1cc(C(=O)O)c(=O)c2cnc(N3CCN(C(=S)Nc4cccc(C(F)(F)F)c4)CC3)nc21 — outcome as called in the assay?
**A:** 1 (yes)

**Q:** Lab log entry: CCn1cc(C(=O)O)c(=O)c2cnc(N3CCN(C(=O)Nc4ccccc4)CC3)nc21 — outcome as called in the assay?
**A:** 0 (no)

**Q:** Lab log entry: CCn1cc(C(=O)O)c(=O)c2cnc(N3CCN(C(=S)NC(=O)c4cccc(C)c4)CC3)nc21 — outcome as called in the assay?
**A:** 1 (yes)

**Q:** Lab log entry: CCn1cc(C(=O)O)c(=O)c2cnc(N3CCN(C(=S)Nc4ccc(Cl)cc4)CC3)nc21 — outcome as called in the assay?
**A:** 1 (yes)

**Q:** Lab log entry: CCn1cc(C(=O)O)c(=O)c2cnc(N3CCN(C(=S)NCc4ccccc4)CC3)nc21 — outcome as called in the assay?
**A:** 1 (yes)

**Q:** Lab log entry: CCn1cc(C(=O)O)c(=O)c2cnc(N3CCN(C(=S)Nc4ccccc4)CC3)nc21 — outcome as called in the assay?
**A:** 0 (no)

**Q:** Lab log entry: CCn1cc(C(=O)O)c(=O)c2cnc(N3CCN(C(=S)NC4CC5CCC4C5)CC3)nc21 (configuration not stated) — outcome as called in the assay?
**A:** 0 (no)

**Q:** Lab log entry: CCn1cc(C(=O)O)c(=O)c2cnc(N3CCN(C(=S)Nc4ccccc4C(F)(F)F)CC3)nc21 — outcome as called in the assay?
**A:** 1 (yes)

**Q:** Lab log entry: CCn1cc(C(=O)O)c(=O)c2cnc(N3CCNCC3)nc21 — outcome as called in the assay?
**A:** 0 (no)

**Q:** Lab log entry: CCn1cc(C(=O)O)c(=O)c2cnc(N3CCN(C(=S)NC(C)c4ccccc4)CC3)nc21 (configuration not stated) — outcome as called in the assay?
**A:** 1 (yes)
